tgt: beta-catenin/TCF4 engagement (Homo sapiens)
Construct: expressed in transfected cells; host or cells: HEK293
Sequence (P35222 whole entry): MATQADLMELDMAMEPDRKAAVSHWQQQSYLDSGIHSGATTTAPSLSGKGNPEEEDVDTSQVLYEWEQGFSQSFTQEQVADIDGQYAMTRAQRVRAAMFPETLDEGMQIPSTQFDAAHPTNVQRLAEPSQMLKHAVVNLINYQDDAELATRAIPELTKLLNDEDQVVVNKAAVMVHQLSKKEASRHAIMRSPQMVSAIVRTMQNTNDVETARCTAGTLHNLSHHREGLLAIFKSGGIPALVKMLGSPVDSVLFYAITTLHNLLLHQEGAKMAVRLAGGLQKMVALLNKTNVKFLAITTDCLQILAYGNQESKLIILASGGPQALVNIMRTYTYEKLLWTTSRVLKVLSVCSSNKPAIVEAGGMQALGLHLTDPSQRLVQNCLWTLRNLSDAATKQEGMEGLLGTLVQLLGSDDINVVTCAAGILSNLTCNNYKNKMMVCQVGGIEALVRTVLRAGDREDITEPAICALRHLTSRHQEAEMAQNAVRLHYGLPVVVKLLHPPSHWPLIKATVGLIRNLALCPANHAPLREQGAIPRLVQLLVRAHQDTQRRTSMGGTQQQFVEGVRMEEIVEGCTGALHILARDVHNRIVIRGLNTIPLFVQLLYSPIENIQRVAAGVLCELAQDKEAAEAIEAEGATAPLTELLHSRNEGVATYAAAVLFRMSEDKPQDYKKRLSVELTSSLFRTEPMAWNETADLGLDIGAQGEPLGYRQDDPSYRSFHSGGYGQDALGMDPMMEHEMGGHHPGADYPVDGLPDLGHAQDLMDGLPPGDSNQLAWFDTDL
protocol.details: Nano-BRET target engagement assay (B-cat-Halo & TCF4-Luc in HEK293 cells)
Type: cell-based
condition.info: absolute IC50; read-out: NanoBRET Abs IC50
In this section we review reported IC50 values for a set of compounds.

compound | tgt | relation.sign | IC50 (µM)
CC(=O)N1CCC[C@]12CC=CCCCC1(CCCC=CCCCOC(=O)N3CC[C@@](C(=O)N[C@@H](Cc4ccccc4C(F)(F)F)C(=O)N[C@@H](Cc4csc5ccccc45)C(=O)N[C@@H](CCC(N)=O)C(=O)N[C@@H](CC(C)C)C(=O)N[C@H](CC(C)C)C(N)=O)(C3)NC(=O)[C@H](CC(C)C)NC(=O)[C@H](Cc3ccccc3)NC(=O)[C@H](C)NC(=O)[C@H](C)NC(=O)[C@H](Cc3cccc(C(=O)O)c3)NC(=O)[C@H](CC(=O)O)NC1=O)NC(=O)[C@H](CC(C)(C)C)NC(=O)[C@H](CC(=O)O)NC2=O (some centres unmarked) [I-2396] | beta-catenin/TCF4 engagement (Homo sapiens) | = | 8.3
CC(=O)N1CCC[C@]12CC=CCCCC1(CCCC=CCCCOC(=O)N3CC[C@@](C(=O)N[C@@H](Cc4ccccc4Cl)C(=O)N[C@@H](Cc4csc5ccccc45)C(=O)N[C@@H](C(N)=O)[C@H](C)O)(C3)NC(=O)[C@H](CC(N)=O)NC(=O)[C@H](Cc3ccccc3)NC(=O)[C@H](C)NC(=O)[C@H](C)NC(=O)[C@H](CC(=O)O)NC(=O)[C@H](CC(=O)O)NC1=O)NC(=O)[C@H](CC(C)(C)C)NC(=O)[C@H](CC(=O)O)NC2=O (some centres unmarked) [I-1028] | beta-catenin/TCF4 engagement (Homo sapiens) | = | 8.7
CC(=O)N1CCC[C@]12CC=CCCCC1(CCCC=CCCCOC(=O)N3CC[C@@](C(=O)N[C@@H](Cc4ccsc4)C(=O)N[C@@H](Cc4csc5ccccc45)C(=O)N[C@@H](CCC(N)=O)C(N)=O)(C3)NC(=O)[C@H](CC(C)C)NC(=O)[C@H](Cc3ccccc3)NC(=O)[C@H](C)NC(=O)[C@H](C)NC(=O)[C@H](CC(=O)O)NC(=O)[C@H](CC(=O)O)NC1=O)NC(=O)[C@H](CC(N)=O)NC(=O)[C@H](CC(=O)O)NC2=O (some centres unmarked) [I-1517] | beta-catenin/TCF4 engagement (Homo sapiens) | > | 20
C[C@@H]1NC(=O)[C@H](C)NC(=O)[C@H](CC(=O)O)NC(=O)[C@H](CC(=O)O)NC(=O)C2(CCCC=CCCCOC(=O)N3CC[C@@](C(=O)N[C@@H](Cc4ccsc4)C(=O)N[C@@H](Cc4csc5ccccc45)C(=O)N[C@@H](CCC(N)=O)C(N)=O)(C3)NC(=O)[C@H](CC(N)=O)NC(=O)[C@H](Cc3ccccc3)NC1=O)CCCC=CCCC(=O)OC1CC(C(=O)N[C@@H](CC(=O)O)C(=O)N[C@@H](CC(C)(C)C)C(=O)N2)N(S(C)(=O)=O)C1 (some centres unmarked) [I-1574] | beta-catenin/TCF4 engagement (Homo sapiens) | > | 20
CC(=O)N1CCC[C@]12CC=CCCCC1(CCCC=CCCCOC(=O)N3CC[C@@](C(=O)N[C@@H](Cc4ccccc4)C(=O)N[C@@H](Cc4csc5ccccc45)C(=O)N[C@@H](CCCCN)C(N)=O)(C3)NC(=O)[C@H](CC(C)C)NC(=O)[C@H](Cc3ccccc3)NC(=O)[C@H](C)NC(=O)[C@H](CCCCNC(C)C)NC(=O)[C@H](CCC(N)=O)NC(=O)[C@H](CC(=O)O)NC1=O)NC(=O)[C@H](CC1CCCCC1)NC(=O)[C@H](CC(=O)O)NC2=O (some centres unmarked) [I-2429] | beta-catenin/TCF4 engagement (Homo sapiens) | > | 20

The origin of these recorded values is patent US20240116985A1.
